Values compiled from ChEMBL document CHEMBL4011607.

# experimental-protocol: Volume of distribution at steady state in dog at […], iv; also: dose 0.25 mg/kg
# Type: ADME, organism-based, Canis lupus familiaris
# measurement-context: in vivo, read-out: Vdss
property-label: Vd (L/kg)
One number for each entry, in L/kg.

> print(dat)
                                     smiles  assay.result
1  COc1cc(-c2cccc(C(F)(F)F)c2)ccc1-n1c(=O)ccc2cc(S(=O)(=O)Nc3ncccn3)ccc21          0.47
2  COc1cc(-c2cccc(OC(F)F)c2)c(F)cc1-n1c(=O)ccc2cc(S(=O)(=O)Nc3ccon3)ccc21          0.22
3  COc1cc(-c2cc(OC)c(-n3c(=O)ccc4cc(S(=O)(=O)Nc5ncccn5)ccc43)cc2F)ccc1Cl          0.47

Task: What does the data say about its Vd? Entry: "COc1cc(-c2ccc(F)c(C)c2)c(F)cc1-n1c(=O)ccc2cc(S(=O)(=O)Nc3ccon3)ccc21"
Result: 0.32

* * *

# experimental-protocol: Tmax in rat at 10 mg/kg, po
# Assay type: ADME, organism-based
# measurement-context: in vivo
property-label: Tmax
Show the value, then the unit it is measured in.

Task: What does the data say about its Tmax? Entry: COc1cc(-c2cccc(F)c2)c(F)cc1-n1c(=O)ccc2cc(S(=O)(=O)Nc3ccon3)ccc21 (atropisomer P)
Result: 2.7 h

* * *

Exercise: state measured clearance for each of the molecules provided.
# experimental-protocol: Clearance in rat at 0.5 mg/kg, iv
# Format: ADME, organism-based
# measurement-context: in vivo

# example entries with known answers
> print(dat)
                                     smiles    assay.result
1  COc1cc(-c2ccc(F)c(C)c2)c(F)cc1-n1c(=O)ccc2cc(S(=O)(=O)Nc3ccon3)ccc21  10.2 mL/min/kg
2  COc1cc(-c2cccc(OC(F)F)c2)c(F)cc1-n1c(=O)ccc2cc(S(=O)(=O)Nc3ccon3)ccc21  15.2 mL/min/kg
3  COc1cc(C(F)(F)F)ccc1N1CCOc2cc(S(=O)(=O)Nc3nccs3)ccc21     4 mL/min/kg
4  COc1cc(-c2cccc(C(F)(F)F)c2)ccc1-n1c(=O)ccc2cc(S(=O)(=O)Nc3ncccn3)ccc21     7 mL/min/kg

Turning now to a further record.
Task: What does the data say about its clearance? Entry: "COc1cc(-c2cc(OC)c(-n3c(=O)ccc4cc(S(=O)(=O)Nc5ncccn5)ccc43)cc2F)ccc1Cl"
Result: 8.33 mL/min/kg

* * *

# experimental-protocol: Intrinsic clearance in rat liver microsomes at 1 uM after 40 mins by LC-MS/MS assay
# Assay type: ADME, microsome
# measurement-context: read-out: CLH
property-label: microsomal CLint at 1 µM (µL/min/mg)
Give bare numbers, in µL/min/mg.

> print(dat)
                                     smiles            property.label  display.unit  assay.result
1  COc1cc(-c2cccc(C(F)(F)F)c2)ccc1-n1c(=O)ccc2cc(S(=O)(=O)Nc3ncccn3)ccc21  microsomal CLint at 1 µM     µL/min/mg            12
2  COc1cc(-c2cc(OC)c(-n3c(=O)ccc4cc(S(=O)(=O)Nc5ncccn5)ccc43)cc2F)ccc1Cl  microsomal CLint at 1 µM     µL/min/mg            12

Task: What does the data say about its microsomal CLint at 1 µM? Entry: "COc1cc(-c2ccc(F)c(C)c2)c(F)cc1-n1c(=O)ccc2cc(S(=O)(=O)Nc3ccon3)ccc21"
Result: 16

* * *

# System: Canis familiaris
# experimental-protocol: Unbound clearance in dog at […], iv; also: dose 0.25 mg/kg
# Assay type: ADME, organism-based, Canis lupus familiaris
# measurement-context: in vivo
property-label: CL free (mL/min/kg)
One number for each entry, in mL/min/kg.

# example entries with known answers
> print(dat)
                                   compound  property.label  display.unit  assay.result
1  COc1cc(-c2cccc(OC(F)F)c2)c(F)cc1-n1c(=O)ccc2cc(S(=O)(=O)Nc3ccon3)ccc21         CL free     mL/min/kg          43.3
2  COc1cc(-c2cc(OC)c(-n3c(=O)ccc4cc(S(=O)(=O)Nc5ncccn5)ccc43)cc2F)ccc1Cl         CL free     mL/min/kg          96.7

Fill in CL free for each of the 3 compounds listed.
1. COc1cc(-c2ccc(F)c(C)c2)c(F)cc1-n1c(=O)ccc2cc(S(=O)(=O)Nc3ccon3)ccc21
2. COc1cc(-c2cccc(F)c2)c(F)cc1-n1c(=O)ccc2cc(S(=O)(=O)Nc3ccon3)ccc21 (atropisomer P)
3. COc1cc(-c2cccc(C(F)(F)F)c2)ccc1-n1c(=O)ccc2cc(S(=O)(=O)Nc3ncccn3)ccc21

Result:
56.7
33
12.8
